Taken from patent US20160319277A1.

Test system: HEK-CMV-Luc2-Hygro cells
Experiment: High-throughput genome-wide siRNA screen and validation screen for luciferase expression
Type: cell-based, human
Settings: Table 4; primary screen, 72 h, negative control = 100%
So basically, if Viable cell density (%) comes in under 80% it's yes, and if it's 80% or more it's no.

Past entries and their recorded results:
- 200 (GCAACAGAAUCGAGCAAGATT; chemistry not given here; listed as Homo sapiens) [compound 200]: no
- 101 (GUUCAUCCAUAAGUACAUUTT; chemistry not given here; listed as Homo sapiens) [compound 101]: no
- 134 (GAUCGUUUGAGAGAACAAATT; chemistry not given here; listed as Homo sapiens) [compound 134]: yes

# TODO verify Viable cell density (%) < 80% strictly for this substance: 175 (CAUUGGUGUUGACAAUCCATT; chemistry not given here; listed as Homo sapiens) [compound 175] no
